stated_conditions: in isobutanol, 318.15 K
endpoint_label: solubility (mole fraction)
Reply with the value as a number alone.

Return solubility (mole fraction) for the following molecule: `CC(C)(C)OC(=O)N[C@@H](CC(N)=O)C(=O)O`
0.00324

###

stated_conditions: in water, 308.15 K
endpoint_label: solubility (mole fraction)
Reply with the value as a number alone.

Return solubility (mole fraction) for the following compound: `CC(C)(C)OC(=O)N[C@@H](CC(N)=O)C(=O)O`
0.000617

###

stated_conditions: in n-butanol, 288.15 K
endpoint_label: solubility (mole fraction)
Reply with the value as a number alone.

Return solubility (mole fraction) for the following compound: `CC(C)(C)OC(=O)N[C@@H](CC(N)=O)C(=O)O`
0.000839

###

stated_conditions: in n-pentanol, 288.15 K
endpoint_label: solubility (mole fraction)
Reply with the value as a number alone.

Return solubility (mole fraction) for the following compound: `CC(C)(C)OC(=O)N[C@@H](CC(N)=O)C(=O)O`
0.000787

###

stated_conditions: in sec-butanol, 298.15 K
endpoint_label: solubility (mole fraction)
Reply with the value as a number alone.

Return solubility (mole fraction) for the following compound: `CC(C)(C)OC(=O)N[C@@H](CC(N)=O)C(=O)O`
0.00227

###

stated_conditions: in n-pentanol, 313.15 K
endpoint_label: solubility (mole fraction)

Return solubility (mole fraction) for the following compound: `CC(C)(C)OC(=O)N[C@@H](CC(N)=O)C(=O)O`
0.00266

###

stated_conditions: in isobutanol, 283.15 K
endpoint_label: solubility (mole fraction)
Reply with the value as a number alone.

Return solubility (mole fraction) for the following compound: `CC(C)(C)OC(=O)N[C@@H](CC(N)=O)C(=O)O`
0.000686

###

stated_conditions: in sec-butanol, 308.15 K
endpoint_label: solubility (mole fraction)
Reply with the value as a number alone.

Return solubility (mole fraction) for the following compound: `CC(C)(C)OC(=O)N[C@@H](CC(N)=O)C(=O)O`
0.00299

###

stated_conditions: in acetone, 298.15 K
endpoint_label: solubility (mole fraction)
Reply with the value as a number alone.

Return solubility (mole fraction) for the following compound: `CC(C)(C)OC(=O)N[C@@H](CC(N)=O)C(=O)O`
0.00139

###

stated_conditions: in isobutanol, 323.15 K
endpoint_label: solubility (mole fraction)

Return solubility (mole fraction) for the following compound: `CC(C)(C)OC(=O)N[C@@H](CC(N)=O)C(=O)O`
0.00421

###

stated_conditions: in acetonitrile, 288.15 K
endpoint_label: solubility (mole fraction)
Reply with the value as a number alone.

Return solubility (mole fraction) for the following molecule: `CC(C)(C)OC(=O)N[C@@H](CC(N)=O)C(=O)O`
0.000177

###

stated_conditions: in 2-butanone, 308.15 K
endpoint_label: solubility (mole fraction)
Reply with the value as a number alone.

Return solubility (mole fraction) for the following molecule: `CC(C)(C)OC(=O)N[C@@H](CC(N)=O)C(=O)O`
0.000879

###

stated_conditions: in sec-butanol, 318.15 K
endpoint_label: solubility (mole fraction)
Reply with the value as a number alone.

Return solubility (mole fraction) for the following molecule: `CC(C)(C)OC(=O)N[C@@H](CC(N)=O)C(=O)O`
0.00505

###

stated_conditions: in isobutanol, 303.15 K
endpoint_label: solubility (mole fraction)
Reply with the value as a number alone.

Return solubility (mole fraction) for the following compound: `CC(C)(C)OC(=O)N[C@@H](CC(N)=O)C(=O)O`
0.0014
